- test.system: 2-5A-dependent ribonuclease (Homo sapiens, UniProt Q05823)
- Sequence (Q05823 whole entry): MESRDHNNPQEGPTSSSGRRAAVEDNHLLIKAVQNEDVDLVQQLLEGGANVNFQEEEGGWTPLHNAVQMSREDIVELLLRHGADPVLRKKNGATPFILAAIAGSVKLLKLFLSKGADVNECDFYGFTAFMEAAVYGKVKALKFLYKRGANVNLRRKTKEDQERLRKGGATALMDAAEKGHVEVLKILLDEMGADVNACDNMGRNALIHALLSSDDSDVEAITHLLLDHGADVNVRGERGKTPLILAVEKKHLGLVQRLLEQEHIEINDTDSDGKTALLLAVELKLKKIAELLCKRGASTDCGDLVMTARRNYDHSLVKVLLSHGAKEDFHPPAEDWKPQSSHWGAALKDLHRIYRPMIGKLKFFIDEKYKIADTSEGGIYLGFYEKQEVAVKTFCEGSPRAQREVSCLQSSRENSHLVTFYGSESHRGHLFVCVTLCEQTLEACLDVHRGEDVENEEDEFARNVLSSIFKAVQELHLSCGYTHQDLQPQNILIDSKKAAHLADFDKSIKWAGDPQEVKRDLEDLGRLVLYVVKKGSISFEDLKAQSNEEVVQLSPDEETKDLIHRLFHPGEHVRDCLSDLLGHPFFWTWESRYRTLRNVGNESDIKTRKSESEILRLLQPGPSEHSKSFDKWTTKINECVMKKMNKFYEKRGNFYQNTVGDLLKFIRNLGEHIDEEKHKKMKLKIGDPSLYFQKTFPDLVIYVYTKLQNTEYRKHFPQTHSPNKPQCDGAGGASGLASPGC
measurement.label: pIC50
Keep it numeric: pIC50 is minus log10 of the concentration in mol/L.

Reported pIC50 of CCN(CC)CCNC(=O)c1c(C)[nH]c(/C=C2/SC(Nc3cccc(F)c3)=C(C(=O)NCCN)C2=O)c1C : 4.80

Now examine the next entry.
Kindly note the recorded pIC50 for CCN(CC)CCNC(=O)c1c(C)[nH]c(/C=C2/SC(Nc3cccc(OC)c3)=C(C(=O)NCCN)C2=O)c1C , which is 4.89

====

- test.system: 2-5A-dependent ribonuclease (Homo sapiens)
- experiment.description: Inhibition of his6-tagged full length human RNase L expressed in insect cells at 250 uM incubated for 30 min by FRET assay relative to control
measurement.label: inhibition (%)
Number only, in %; omit the unit.

Check out these entries, answers already filled in.
Entry under test: CCN(CC)CCNC(=O)c1c(C)[nH]c(/C=C2/SC(Nc3ccccc3)=C(C(=O)NCCNC(=O)OC(C)(C)C)C2=O)c1C . Its inhibition was 75

Looking up CCOC(=O)C1=C(Nc2ccc(OC)c(OC)c2)S/C(=C/c2[nH]c(C)c(C(=O)NCCN(CC)CC)c2C)C1=O , I found its inhibition recorded as 79

For CCOC(=O)C1=C(Nc2ccc(C(F)(F)F)cc2)S/C(=C/c2[nH]c(C)c(C(=O)NCCN(CC)CC)c2C)C1=O the compound record lists inhibition as 90

Looking up CCOC(=O)C1=C(Nc2ccc(CC)cc2)S/C(=C/c2[nH]c(C)c(C(=O)NCCN(CC)CC)c2C)C1=O , I found its inhibition recorded as 83

Form field inhibition, entry CCN(CC)CCNC(=O)c1c(C)[nH]c(/C=C2/SC(Nc3cccc(OC)c3)=C(C(=O)NCCN)C2=O)c1C : 101

---
Form field inhibition, entry CCOC(=O)C1=C(Nc2ccc([N+](=O)[O-])cc2)S/C(=C/c2[nH]c(C)c(C(=O)NCCN(CC)CC)c2C)C1=O : 67

====

- test.system: 2-5A-dependent ribonuclease (Homo sapiens) (UniProt Q05823)
- experiment.description: Inhibition of his6-tagged full length human RNase L expressed in insect cells at 250 uM incubated for 30 min by FRET assay relative to control
Please enter MET where inhibition is greater than or equal to 80%, and NOT MET where it is lower.

Completed entries (count: 2):
Is inhibition for CCOC(=O)C1=C(Nc2ccc(Br)cc2)S/C(=C/c2[nH]c(C)c(C(=O)NCCN(CC)CC)c2C)C1=O at or above 80%?
MET

Does the reported inhibition for CCN(CC)CCNC(=O)c1c(C)[nH]c(/C=C2\C(=O)Nc3ccc(F)cc32)c1C fall at or above the 80% mark?
MET

***
Hi team, for CCOC(=O)C1=C(Nc2cccc(F)c2)S/C(=C/c2[nH]c(C)c(C(=O)NCCN(CC)CC)c2C)C1=O , is the recorded inhibition at or above 80%?
NOT MET

Check if inhibition >= 80% (inclusive). Item: CCOC(=O)C1=C(Nc2ccccc2Br)S/C(=C/c2[nH]c(C)c(C(=O)NCCN(CC)CC)c2C)C1=O
MET

Is inhibition for CCOC(=O)C1=C(Nc2ccc(OC)cc2)S/C(=C/c2[nH]c(C)c(C(=O)NCCN(CC)CC)c2C)C1=O at or above 80%?
NOT MET

Can CCN(CC)CCNC(=O)c1c(C)[nH]c(/C=C2/OC(Nc3ccccc3)=C(C(=O)NCCN)C2=O)c1C be said to have inhibition at or above 80%?
MET

====

Reported inhibition values for a set of molecules
- test.system: 2-5A-dependent ribonuclease (Homo sapiens) (UniProt Q05823)
- experiment.description: Inhibition of his6-tagged full length human RNase L expressed in insect cells at 130 uM incubated for 30 min by FRET assay relative to control
Provide only the numeric value, understood in %.

Just so you know, measured inhibition for CCN(CC)CCNC(=O)c1c(C)[nH]c(/C=C2/SC(Nc3cccc([N+](=O)[O-])c3)=C(C(=O)NC)C2=O)c1C came out at 60

Value of measured inhibition for the entry CCN(CC)CCNC(=O)c1c(C)[nH]c(/C=C2/SC(Nc3cccc(OC)c3)=C(C(=O)NCCNC(=O)OC(C)(C)C)C2=O)c1C : 49

Reported inhibition of CCN(CC)CCNC(=O)c1c(C)[nH]c(/C=C2/SC(Nc3cccc(C(F)(F)F)c3)=C(C(=O)NC)C2=O)c1C : 97

Now look at this one.
Value of inhibition reported for the molecule CCN(CC)CCNC(=O)c1c(C)[nH]c(/C=C2/SC(Nc3cccc(Cl)c3)=C(C(=O)NC)C2=O)c1C is 88

====

- test.system: 2-5A-dependent ribonuclease (Homo sapiens)
- Sequence (whole entry): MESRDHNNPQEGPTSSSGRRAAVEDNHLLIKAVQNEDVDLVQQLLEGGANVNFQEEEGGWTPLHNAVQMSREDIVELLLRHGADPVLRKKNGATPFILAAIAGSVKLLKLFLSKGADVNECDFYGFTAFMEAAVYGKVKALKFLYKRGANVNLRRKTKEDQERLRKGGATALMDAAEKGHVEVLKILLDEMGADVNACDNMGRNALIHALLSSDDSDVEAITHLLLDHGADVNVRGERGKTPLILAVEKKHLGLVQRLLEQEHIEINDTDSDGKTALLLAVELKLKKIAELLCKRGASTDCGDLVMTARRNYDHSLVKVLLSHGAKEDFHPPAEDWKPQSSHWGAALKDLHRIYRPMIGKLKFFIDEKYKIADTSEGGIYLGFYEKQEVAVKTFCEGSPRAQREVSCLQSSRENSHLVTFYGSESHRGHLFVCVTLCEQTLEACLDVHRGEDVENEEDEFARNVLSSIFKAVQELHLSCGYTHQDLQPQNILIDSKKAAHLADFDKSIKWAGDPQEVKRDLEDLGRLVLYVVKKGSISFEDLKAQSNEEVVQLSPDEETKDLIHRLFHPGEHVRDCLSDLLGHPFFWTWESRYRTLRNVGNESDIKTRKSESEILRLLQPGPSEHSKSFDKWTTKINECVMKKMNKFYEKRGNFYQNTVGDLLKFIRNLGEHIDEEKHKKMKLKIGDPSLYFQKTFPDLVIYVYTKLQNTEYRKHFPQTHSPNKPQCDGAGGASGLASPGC
- experiment.description: Inhibition of his6-tagged full length human RNase L expressed in insect cells at 250 uM incubated for 30 min by FRET assay relative to control
measurement.label: inhibition (%)
Report the value in % with no unit label.

Consider the following illustrative entries.
Measured inhibition, CCN(CC)CCNC(=O)c1c(C)[nH]c(/C=C2/OC(Nc3cccc(F)c3)=C(C(=O)NCCN)C2=O)c1C : 97

Note to self: inhibition recorded for CCN(CC)CCNC(=O)c1c(C)[nH]c(/C=C2/SC(Nc3cccc(F)c3)=C(C(=O)NC)C2=O)c1C was 58

For record CCN(CC)CCNC(=O)c1c(C)[nH]c(/C=C2/OC(Nc3ccccc3)=C(C(=O)NC)C2=O)c1C the listed inhibition is 74

---
Lab note: CCN(CC)CCNC(=O)c1c(C)[nH]c(/C=C2/SC(Nc3cccc(Cl)c3)=C(C(=O)NCCNC(=O)OC(C)(C)C)C2=O)c1C gave inhibition of 96

Query CCN(CC)CCNC(=O)c1c(C)[nH]c(/C=C2/OC(Nc3cccc(F)c3)=C(C(=O)NCCNC(=O)OC(C)(C)C)C2=O)c1C yields inhibition of 84
